src = the RNAGym collection of RNA variant scans (doi:10.7554/elife.80360)

B1: HDV Ribozyme (parent)
chain: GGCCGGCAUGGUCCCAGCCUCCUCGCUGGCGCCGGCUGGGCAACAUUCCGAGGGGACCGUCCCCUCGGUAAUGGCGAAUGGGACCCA

Variants of: B1
Experiment: self-cleavage, relative activity (ratio to wild type); higher = more cleavage; co-transcriptional
Output MET for self-cleavage not less than 0.2; output NOT MET otherwise.

{"Sequence change": "U60A C63G", "Group label": "MET"}
{"Sequence change": "U72C G74U", "Group label": "MET"}
{"Sequence change": "G2U C49A", "Group label": "NOT MET"}
{"Sequence change": "G29U G31U", "Group label": "NOT MET"}
